tested on: RXF 393 renal; experiment: NCI tumour cell line growth inhibition, 48 h
In this section we review reported TGI values for a set of compounds.
Measurement Name: TGI (µM)

# Compound, Measurement Name, Quantity Unit, Qualifying Sign, Result
rows = [
    ("COc1cc(/C=C(\\NC(=O)c2ccccc2)c2nc3ncncc3[nH]2)cc(OC)c1OC", "TGI", "µM", ">", 100),
    ("O=C(Nc1cc(Cl)ccc1O)c1ccccc1Nc1ccnc(C(F)(F)F)c1", "TGI", "µM", "=", 10.6),
    ("Oc1ccc(C(O)(c2ccccc2)c2ccccc2)c2ccccc12", "TGI", "µM", ">", 100),
    ("CC(C)(C)OC(=O)[C@@H]1ON2O[C@H](OC3CCCC3(c3ccccc3)c3ccccc3)C[C@H]3OC(=O)[C@@H]1[C@H]32 (stereo not given in full)", "TGI", "µM", "=", 92.1),
    ("COC(=O)c1c(C)c2c(c(C)c1C(=O)OC)-c1c(C)ccc3ccc(C)c-2c13", "TGI", "µM", ">", 100),
]

* * *

test system: MDA-N; assay: NCI tumour cell line growth inhibition, 48 h
Measurement Name: TGI

# Compound, Result
rows = [
    ("CC/C(Cl)=N\\OC(=O)Nc1ccc(OC)c(C)c1", "41 µM"),
    ("CC(=O)Nc1ccc(S(=O)(=O)N=S(C)C)cc1", "> 100 µM"),
    ("N#CC(C#N)=c1c2ccccc2c(=C(C#N)C#N)c2ccccc12", "41.5 µM"),
    ("CCCc1nc(Cl)c(Cl)c(Cl)n1", "> 100 µM"),
    ("CCOC(=O)/C(C(=S)NCc1ccccc1)=C(/N)N1CCCC1", "> 100 µM"),
    ("COC1=C2CC(C)CC(OC)C(OC(=O)CN)[C@H](C)/C=C(\\C)C(OC(N)=O)C(OC)/C=C\\C=C(/C)C(=O)NC(=CC1=O)C2=O (some centres not stated)", "3.34 µM"),
    ("NC(CCP(=O)(O)O)C(=O)O (configuration not stated)", "> 100 µM"),
    ("CCOC(=O)NN(C(=O)OCC)C(=C(C1=CCCCC1)N1CCOCC1)N(NC(=O)OCC)C(=O)OCC", "> 100 µM"),
    ("O=c1oc2ccccc2c(O)c1C(c1ccc(-c2ccccc2)cc1)c1c(O)c2ccccc2oc1=O", "36.1 µM"),
    ("CC(=O)Nc1cc2cc(NS(=O)(=O)c3ccc(Cl)c(Cl)c3)ccc2oc1=O", "> 100 µM"),
    ("COC(=O)c1c(O)ccc2c1c1c(n2Cc2ccccc2OC)C(=O)c2ccccc2C1=O", "37.9 µM"),
    ("CCOC(=O)C1C(c2ccc(OC)cc2)c2c([nH][nH]c2=O)CC1(C)O (configuration not stated)", "> 100 µM"),
    ("OCCCCn1cc(Cn2ncc3c(NCc4ccccc4)ncnc32)nn1", "> 100 µM"),
    ("CN1C(=O)C(C(=O)Nc2ccccn2)C2C[C@@]1(C)Oc1ccccc12 (some centres not stated)", "> 100 µM"),
    ("Cc1ccc(-c2nc(-c3nccc4ccccc34)oc2-c2ccccc2)cc1", "> 100 µM"),
    ("C=CCN1C[C@H](C)N([C@H](c2ccc(C(=O)N(CC)CC)cc2)c2cccc(OC)c2)C[C@H]1C", "> 100 µM"),
    ("O=C(Nc1ccccc1)OC1OC(COC(=O)c2ccccc2)C(OC(=O)c2ccccc2)C1OS(=O)(=O)c1ccc([N+](=O)[O-])cc1 (configuration not stated)", "> 100 µM"),
    ("O=C1CCC2c3ccccc3NCN12 (configuration not stated)", "> 100 µM"),
    ("CO[C@@]12C[C@@H](C)[C@]34O[C@H]3C[C@]3(C)O[C@]43CC1=C(C)C(=O)O2", "> 100 µM"),
    ("CC(NC1=CC(=O)c2cccnc2C1=O)C(O)c1ccccc1 (configuration not stated)", "1.3 µM"),
    ("COc1cc([N+](=O)[O-])c(S(=O)(=O)O)cc1-n1nc(C(=O)Nc2ccccc2)n[n+]1-c1cc(S(=O)(=O)[O-])c([N+](=O)[O-])cc1OC", "> 100 µM"),
    ("S=C(N/N=C/c1ccccn1)N1CC2CCC(CC2)C1", "13.1 µM"),
]

* * *

tested on: SF-539 CNS; test: NCI tumour cell line growth inhibition, 48 h
In this section we review reported TGI values for a set of molecules.

# Molecule, System Under Test, Quantity Unit, Qualifying Sign, TGI
rows = [
    ("CO[C@@]12C[C@@H](C)[C@]34O[C@H]3C[C@]3(C)O[C@]43CC1=C(C)C(=O)O2", "SF-539 CNS", "µM", ">", 100),
    ("CC/C(Cl)=N\\OC(=O)Nc1ccc(OC)c(C)c1", "SF-539 CNS", "µM", "=", 42),
    ("Cc1c2ccncc2c(C)c2c1sc1ccccc12", "SF-539 CNS", "µM", "=", 21.1),
    ("COC(=O)CN1C(=O)C2(C(=O)OC)OC1(c1ccc([N+](=O)[O-])cc1)C1C(=O)N(c3ccccc3)C(=O)C12 (stereo not drawn)", "SF-539 CNS", "µM", ">", 100),
    ("Nc1nc2c(-c3ccc([N+](=O)[O-])cc3)nnn2c2ccccc12", "SF-539 CNS", "µM", ">", 100),
    ("Fc1ccc(-c2nn3ccccc3c2-c2ccncc2)cc1", "SF-539 CNS", "µM", ">", 25),
    ("CCCCOc1ccc(/C=N/Nc2cc(C)nc3ccc(Br)cc23)cc1", "SF-539 CNS", "µM", "=", 3.29),
    ("c1ccc(-c2c(-c3cccs3)[nH]c(-c3cccs3)c2-c2ccccn2)nc1", "SF-539 CNS", "µM", "=", 40.6),
    ("COc1ccc2c(c1)C(OC)C1c3c(cc4c(c3-2)OCO4)CCN1C (stereo not drawn)", "SF-539 CNS", "µM", "=", 8.38),
    ("CCCCCCCCCCNCCSS(=O)(=O)O", "SF-539 CNS", "µM", "=", 5.21),
    ("C=CCN1C[C@H](C)N([C@H](c2ccc(C(=O)N(CC)CC)cc2)c2cccc(OC)c2)C[C@H]1C", "SF-539 CNS", "µM", ">", 100),
    ("c1ccc(Cn2c(-c3ccc(-c4ccccc4)cc3)cc3ccccc32)cc1", "SF-539 CNS", "µM", ">", 100),
    ("C(=C\\C(Sc1ccccc1)c1ccccc1)/NNC1=NC(c2ccccc2)C(c2ccccc2)=NN1 (stereo not drawn)", "SF-539 CNS", "µM", ">", 100),
    ("CCCc1nc(Cl)c(Cl)c(Cl)n1", "SF-539 CNS", "µM", "=", 68.6),
    ("Cc1ccc(N=C2N=C(N3CC(C)OC(C)C3)c3ccccc32)cc1 (stereo not drawn)", "SF-539 CNS", "µM", "=", 38.1),
    ("COc1cc2cc3c4c(cc(OC)c(OC)c4c2cc1OC)CCN3C", "SF-539 CNS", "µM", "=", 40.5),
    ("CCS(=O)c1c2cc(OC)ccc2nc2ccc(OC)cc12 (stereo not drawn)", "SF-539 CNS", "µM", ">", 59),
    ("Cc1ccc(Cl)c(NS(=O)(=O)c2ccc(-c3cnc(C4CC4)o3)cc2)c1", "SF-539 CNS", "µM", "=", 1.54),
    ("C#C[C@@]1(O)[C@@H](CO)O[C@@H](n2cc(C(F)(F)F)c3c(N)ncnc32)[C@@H]1O", "SF-539 CNS", "µM", "=", 2.71),
    ("C[n+]1c2ccccc2c(CNCC(=O)O)c2ccccc21", "SF-539 CNS", "µM", "=", 5.19),
    ("COC(=O)c1cc(O)c(O)c(O)c1-c1c(O)c(O)c(O)c(SC[C@H](NC(=O)OCc2ccccc2)C(=O)OCc2ccccc2)c1C(=O)OC", "SF-539 CNS", "µM", "=", 73),
    ("CCC(C)C1=C(O)[N+]2([O-])Oc3ccc(C4=C(O)C(=O)C(c5ccc(O)cc5)=C(O)C4=O)cc3OC2(C(C)CC)C(=O)N1O (stereo not drawn)", "SF-539 CNS", "µM", ">", 100),
    ("Cn1c(=O)c(Oc2ccc(F)cc2F)cc2cnc(N[C@@H]3CCOC3)nc21", "SF-539 CNS", "µM", ">", 25),
    ("CC1(C)Cc2c(oc3ncnc(N)c23)CS1", "SF-539 CNS", "µM", ">", 100),
    ("Cc1ccc(S(=O)(=O)N/N=C2\\CCC3(O)CC2(C)CCC2C3CC2(C)C)cc1 (stereo not drawn)", "SF-539 CNS", "µM", ">", 100),
    ("O=C(/C=C/c1ccccn1)c1ccc(OCc2nnc(-c3ccc(Cl)cc3)o2)cc1", "SF-539 CNS", "µM", "=", 3.09),
    ("O=C(O)CCCNc1ncc2c(n1)-c1ccccc1OC2", "SF-539 CNS", "µM", ">", 100),
    ("CS(=O)(=O)c1ccc2nc(-c3ccc(O)cc3)sc2c1", "SF-539 CNS", "µM", "=", 23.6),
    ("Clc1cccc(CNc2c3ccccc3nc3ccccc23)c1", "SF-539 CNS", "µM", "=", 3.32),
    ("COc1cc(-c2nc3ccccc3o2)cc(CN2CCCCC2)c1O", "SF-539 CNS", "µM", "=", 7.68),
    ("Nc1cc2ncnn2c(SCC(=O)N/N=C/C(Br)=C\\c2ccccc2)n1", "SF-539 CNS", "µM", "=", 39.2),
    ("O=C(Nc1cc(F)c(F)cc1C(=O)O)c1ccc(-n2ccnc2)nn1", "SF-539 CNS", "µM", ">", 100),
    ("O=C(NCCOCCOCCOCCNC(=O)c1cc2c(o1)C(=O)c1ccccc1C2=O)NC12CC3CC(CC(C3)C1)C2", "SF-539 CNS", "µM", "=", 3.16),
    ("CC1C[C@]2(C[C@@H](C)C(=O)O2)OC2CC3(C)C4CCC5C(C)(C)OC(=O)CC[C@@]56C[C@@]46CC[C@]3(C)C12 (stereo partly drawn)", "SF-539 CNS", "µM", ">", 100),
    ("O=C1OCC(c2ccc(Cl)cc2)=C1Cl", "SF-539 CNS", "µM", ">", 100),
    ("COC(=O)c1c(C)c2c(c(C)c1C(=O)OC)-c1c(C)ccc3ccc(C)c-2c13", "SF-539 CNS", "µM", ">", 100),
    ("c1ccc(-c2n(Cc3ccc4ccccc4c3)c3ccccc3[n+]2Cc2ccc3ccccc3c2)cc1", "SF-539 CNS", "µM", "=", 1.29),
    ("CCOC(=O)OC1C(Br)C2CCC1(C)C2(C)C (stereo not drawn)", "SF-539 CNS", "µM", "=", 28),
    ("CCN1C(=O)N(CC)C2C1NN=c1s/c(=C3\\C(=O)N(C4CCCC4)c4ccccc43)c(=O)n12 (stereo not drawn)", "SF-539 CNS", "µM", "=", 2.4),
    ("CO[C@]12S[C@@H]3CCCC[C@@]31C(C)(C)C(=O)N2c1ccccc1", "SF-539 CNS", "µM", "=", 28.6),
    ("CN(C)Cc1ccc(NC(=O)c2cncc(C#Cc3cnc(N)c4ncccc34)c2)cc1F", "SF-539 CNS", "µM", "=", 3.07),
    ("O=C(N/C(=C\\c1ccccc1O)c1nc2ccccc2[nH]1)c1ccccc1", "SF-539 CNS", "µM", ">", 100),
    ("CN(C)c1ccc(/C=N/c2nc3cc4sc(/N=C/c5ccc(N(C)C)cc5)nc4cc3s2)cc1", "SF-539 CNS", "µM", ">", 100),
]
